Assay: Candida albicans biofilm persister killing – 4-compound mixtures, primary screen (AID 1242);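 note: compounds exposed to preformed 24 h biofilms for 48 h; 0% = untreated biofilm control and 100% = clotrimazole plus chlorhexidine kill blank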
Conditions: C. albicans biofilm persisters + clotrimazole, fluorescence viability, primary screen in compound mixtures, stronger effect = higher value; at 7.6 µM unless noted
Hit rate of the full screen: of about 120,000 compounds, about 20 (0.02%) were called active. The full list was thinned out, with actives kept by preference.
Assign inhibition to each entry below.
Numbers only, in %.

Before answering, review these 4 worked examples.
MOLECULE | inhibition, %
COCCNc1nc(-c2ccccc2)nc2c1oc1ccccc12 | 17.2
CCN(CC)CCN(C(=O)c1ccc(N2C(=O)CCC2=O)cc1)c1nc2cc3c(cc2s1)OCO3 | 4.15
COc1ccc(C)cc1NC(=O)NCc1ccccn1 | 16.2
CCOc1cc(NC(=S)NCc2ccco2)c(OCC)cc1NC(=O)c1ccco1 | 2.67

Hey, quick one: what's inhibition for each of these?
1. O=C(O)c1ccc(/C=N/NC(=S)NCc2ccccc2)cc1
2. COc1ccc(NC(=O)CSc2nc(C)cs2)cc1
3. COc1ccc(-c2[nH]ncc2CN(Cc2nccn2C)C(C)C)cc1F

10.6
-9.15
6.59

Hey, quick one: what's inhibition for each of these?
1. C/C(=N\NC(=O)c1cccnc1)c1ccc(-c2ccccc2)cc1
2. CCOc1ccc(NS(=O)(=O)c2ccc(C)c(C(N)=O)c2)cc1
3. CN(C)N(C)C(=O)C(O)(c1ccccc1)c1ccccc1
4. O=C(NC1CCCCC1)c1cc(C2CC2)on1
5. CCN(CC)C(=O)C(=O)Nc1cccc(Br)c1
6. CC(Oc1ccc(Br)cc1Br)C(=O)NC1CCCC1 (centres undefined)
7. COc1cccc2c(N/N=C/c3ccco3)cc(C)nc12
8. CCCCN(C(=O)COc1ccc(NC(C)=O)cc1)C1CCS(=O)(=O)C1 (centres undefined)

[11.8, 13.4, 8.15, 7.38, 10, 19.2, 8.66, 12.9]

Hey, quick one: what's inhibition for each of these?
1. O=C(Cn1c(N2CCN(C/C=C/c3ccccc3)CC2)nc2ccccc21)c1ccccc1
2. CC(=O)NC(NC(=S)Nc1c(C)n(C)n(-c2ccccc2)c1=O)C(Cl)(Cl)Cl (centres undefined)
3. Cc1cnc(C(=O)OCC(=O)N2CCc3ccccc32)cn1
4. COc1ccc(C(=O)OCC(=O)NCC2CCCO2)cc1[N+](=O)[O-] (centres undefined)
5. COc1ccc(CC(=O)NCC(=O)N/N=C/c2cc(Br)ccc2OC)cc1
6. COC(=O)c1cccc(NS(C)(=O)=O)c1

1. 9.46
2. 12
3. -4.77
4. 12.1
5. 19.3
6. 13.2

----------
Assign inhibition to each entry below.
Assay: Candida albicans biofilm persister killing – 4-compound mixtures, primary screen (AID 1242)
Conditions: C. albicans biofilm persisters + clotrimazole, fluorescence viability, primary screen in compound mixtures, stronger effect = higher value; at 7.6 µM unless noted
Out of some 120,000 compounds screened, about 20 (0.02%) were called active. Only a selection was taken, and actives are over-represented in it overall.

Before answering, review these 5 worked examples.
COMPOUND | QUANTITY_NAME | RESULT
CC(CO)(CO)NC(=O)c1ccc(=O)[nH]n1 | inhibition | 20.4% (inactive)
COc1ccc(Cl)cc1CSc1ncn[nH]1 | inhibition | 13.5% (inactive)
CCOC(=O)c1cc(-c2ccc(F)cc2)n(CC(=O)NCc2ccccn2)c1C | inhibition | 14% (inactive)
COc1ccc(-n2c(C)nn(CC3CC3)c2=O)cc1 | inhibition | -10.4% (inactive)
Cn1cnnc1SCC(=O)Nc1ccc(N2CCOCC2)cc1 | inhibition | 1.33% (inactive)

Hey, quick one: what's inhibition for each of these?
1. COc1ccc(C(=O)NCC(=O)N/N=C/c2ccc([N+](=O)[O-])s2)cc1OC
2. CCOC(=O)C1CCN(c2ncnc3c2c(-c2ccccc2)cn3-c2ccc(C)cc2)CC1

1. 20.6% (inactive)
2. 10.1% (inactive)

----------
Test: Candida albicans biofilm persister killing – 4-compound mixtures, primary screen (AID 1242);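 note: compounds exposed to preformed 24 h biofilms for 48 h; 0% = untreated biofilm control and 100% = clotrimazole plus chlorhexidine kill blank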
Settings: C. albicans biofilm persisters + clotrimazole, fluorescence viability, primary screen in compound mixtures, stronger effect = higher value; at 7.6 µM unless noted
About 20 (0.02%) of roughly 120,000 compounds were called active. The sample holds actives, similar compounds and a random draw of the others, so the mix is not that of the screen.
QUANTITY_NAME: inhibition

Before answering, review these 3 worked examples.
MOLECULE | inhibition
O=C(Nc1ccc(F)cc1)N1CCCC(c2nc3c(nnn3Cc3ccccc3Cl)c(=O)[nH]2)C1 (stereo not given) | 11.9% (inactive)
Cc1ccc(S(=O)(=O)N(CC(=O)NN=C2CCN(C)CC2)c2ccc(F)cc2)cc1 | 12.2% (inactive)
CC(=O)N/C(=C\c1ccc(F)cc1)C(=O)NC(Cc1ccccc1)C(=O)O (stereo not given) | 14.6% (inactive)

Hey, quick one: what's inhibition for each of these?
1. Cc1ccc(C2CC(c3cccc(NS(C)(=O)=O)c3)=NN2S(C)(=O)=O)cc1 (stereo not given)
2. O=C(Cc1ccc(F)cc1)N/N=C/c1ccc2c(c1)OCO2
3. CC(C)(C)c1cc(NC(=O)NN2CCOCC2)nn1-c1c(Cl)cc(Cl)cc1Cl
4. Cc1cccc(NC(=S)NCCc2ccc(F)cc2)c1C
5. Cc1cc(C)c(C)c(S(=O)(=O)N[C@@H](C)C(=O)OC(C)C(=O)NC(N)=O)c1C (stereo not given in full)
6. O=C(CCc1ccccc1)NCCc1cccs1
7. CCOC(=O)/C(C#N)=C/c1ccc(N2CCCCC2)cc1

["16% (inactive)", "-22.6% (inactive)", "5.67% (inactive)", "13.3% (inactive)", "14.7% (inactive)", "19.8% (inactive)", "16.2% (inactive)"]

----------
Assay: Candida albicans biofilm persister killing – 4-compound mixtures, primary screen (AID 1242);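 note: compounds exposed to preformed 24 h biofilms for 48 h; 0% = untreated biofilm control and 100% = clotrimazole plus chlorhexidine kill blank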
Details: C. albicans biofilm persisters + clotrimazole, fluorescence viability, primary screen in compound mixtures, stronger effect = higher value; at 7.6 µM unless noted
In all, about 120,000 compounds went through this assay and about 20 (0.02%) were called active. What follows is part of a selection rich in actives, with near analogues and random picks from the rest.
# class assignment by measured inhibition: low bracket = under 10%, middle bracket = from 10% up to 20%, high bracket = 20% and over

Illustrative cases are given below, each with its answer.
MOLECULE | QUALITATIVE_LABEL
O=C(NCCN1CCOCC1)Nc1cccc(Cl)c1 | high bracket
O=C1CC(Cc2ccc(Cl)cc2)C(=O)N1c1cc(Cl)ccn1 (stereo not drawn) | middle bracket
COC(=O)c1nn(-c2cccc(Cl)c2)ccc1=O | middle bracket

Band for the recorded inhibition of CC(=O)c1cccc(-n2nnnc2SCC(=O)NNC(=O)C2CCCCC2)c1 ? low bracket

Band for the recorded inhibition of CCOCCCN(C(=O)Cn1nnc(-c2ccc(OC)c(OC)c2)n1)C(CC)C(=O)NC1CCCC1 (stereo not drawn) ? middle bracket

Band for the recorded inhibition of COc1ccc(C(=O)CSc2nnnn2C)c(OC)c1 ? low bracket

Band for the recorded inhibition of NCC(=O)c1cccc2ccc[n+]([O-])c12 ? middle bracket

----------
Assay: Candida albicans biofilm persister killing – 4-compound mixtures, primary screen (AID 1242);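 note: compounds exposed to preformed 24 h biofilms for 48 h; 0% = untreated biofilm control and 100% = clotrimazole plus chlorhexidine kill blank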
Details: C. albicans biofilm persisters + clotrimazole, fluorescence viability, primary screen in compound mixtures, stronger effect = higher value; at 7.6 µM unless noted
The whole screen tested about 120,000 compounds, of which about 20 (0.02%) were called active. The entries come from a sample that favours actives as a whole.
Assign inhibition to each entry below.
Give bare numbers, in %.

Before answering, review these 6 worked examples.
COMPOUND | READOUT_NUMBER
O=c1[nH]c(N2CCN(Cc3ccc4c(c3)OCO4)CC2)nc2c1CCCC2 | 6.65
O=C1N(c2ccccc2)C(=Nc2ccccc2)SC12CC2 | 16.8
COC(=O)C1=C(C(=O)OC)C(c2cc([N+](=O)[O-])ccc2O)c2sc(=O)[nH]c2S1 (configuration not stated) | 12.9
COc1cc(N2C(=O)c3ccccc3C2=O)c(Cl)cc1C(=O)OCC(=O)N1CCOCC1 | 3.87
CCCCCCCC(=O)OC(CN1CCCCCC1)CN1CCCC1=O (configuration not stated) | 0.73
CCn1ccnc1CN1CCCC(C(=O)c2ccc3c4c(cccc24)CC3)C1 (configuration not stated) | 13.8

Hey, quick one: what's inhibition for each of these?
1. Cc1ccc(N2C(=O)SC(N(CC(=O)O)c3ccc(C)cc3)C2=O)cc1 (configuration not stated)
2. COc1ccc(CCNC(=O)C(=O)Nc2ccc3nc4n(c(=O)c3c2)CCCCC4)cc1OC
3. O=C(NCC1CCCO1)c1ccccc1-c1nc(-c2ccccc2Cl)no1 (configuration not stated)
4. CCc1ccccc1NC(=O)CSc1nnc(CCNC(=O)OC(C)(C)C)o1
5. Cc1ccc(O)c(NC(=S)NC(=O)COc2ccc(Br)cc2)c1
6. CCOC(=O)C1(Cc2cccc(OC)c2)CCN(C(C)COC)CC1 (configuration not stated)
7. COc1ccc(C2CC(c3cccs3)=NN2C(=O)CSc2nnc(N)s2)cc1OC (configuration not stated)
8. O=C(O)c1cccc(NC(=O)c2cc(-c3cccc(Cl)c3)nc3ccccc23)c1

[30.1, 5.01, 16.1, 24.5, 9.22, 14.5, 2.04, 16.3]

Hey, quick one: what's inhibition for each of these?
1. O=C1Nc2cc(Cl)c(Cl)cc2N(O)N1c1ccccc1Cl
2. COc1ccc(CC(=O)NCc2nnc(SCC(=O)Nc3nccs3)n2C)cc1

[16.7, 7.45]

Numbers sourced from PubChem BioAssay AID1242.
